Below: a set of entries, each annotated with reported pEC50.
# Tested on: human colon carcinoma cell line HCT116
# protocol_description: Caspase cascade activation in HCT116 cells
# Format: cell-based
# assay_setup: Homo sapiens, HCT-116, 48 h, read-out: Caspase activation Potency EC50 HCT116 (48 h)
Expect pEC50 as a plain number equal to -log10 of the molar concentration.

Exam item: Identify the reported pEC50 for the following entry. COc1ccc(OC)c(Nc2nc(C)nc3ccsc23)c1
Marked response: 5.63

Exam item: Given the compound COc1ccc(OC)c(Nc2ncnc3c(C)csc23)c1 , write its reported pEC50.
Marked response: 6.47

Exam item: Item COc1ccc(OC)c(Nc2ncnc3cc(Br)sc23)c1 : provide pEC50
Marked response: 6.47

Exam item: Tell me measured pEC50 for COc1cc(Nc2ncnc3ccsc23)cc(C(F)(F)F)c1 please.
Marked response: 5.58

Exam item: Output pEC50 of COc1ccc(OC)c(Nc2ncnc3ccsc23)c1
Marked response: 5.30
